system: johnsongrass; assay: Test C pre-/postemergence test; type: in vivo, Sorghum halepense; settings: 31 g ai/ha, Preemergence; scale 0 to 100
Task for the reader: assign each of the following compounds its reported Johnsongrass plant response rating.
One number for each entry.

Answered examples (3):
COMPOUND: Cn1nc(C(F)(F)F)c(C[S+]([O-])c2ccc(Cl)c[n+]2[O-])c1OC(F)F (stereo not shown) [Compound 6]
Johnsongrass plant response rating: 65
--
COMPOUND: Cn1nc(C(F)(F)F)c(C[S+]([O-])c2ccc(Br)c[n+]2[O-])c1OC(F)F (racemic) [Compound 16]
Johnsongrass plant response rating: 100
--
COMPOUND: Cn1nc(C(F)(F)F)c(CS(=O)(=O)c2cccc[n+]2[O-])c1Cl [Compound 9]
Johnsongrass plant response rating: 45

Lab note: next compound to report on.
Data request: Note Johnsongrass plant response rating for the compound shown: Cn1nc(C(F)(F)F)c(CS(=O)(=O)c2cccc[n+]2[O-])c1OC(F)F [Compound 4]
Data returned: 95

###

Task for the reader: assign each of the following molecules its reported Corn plant response rating.
system: corn; test: Test A pre-/postemergence greenhouse test; assay type: in vivo, Zea mays; details: Preemergence, 500 g ai/ha; 0 to 100 scale, 0 no effect, 100 complete control
Answers are plain numbers.

Answered examples (8):
MOLECULE: Cc1ccc[n+]([O-])c1[S+]([O-])Cc1c(C(F)(F)F)nn(C)c1OC(F)F (stereo not shown)
Corn plant response rating: 70
--
MOLECULE: CC(C)c1cc[n+]([O-])c([S+]([O-])Cc2c(C(F)(F)F)nn(C)c2OC(F)F)c1 (stereo not shown)
Corn plant response rating: 90
--
MOLECULE: CCc1cc[n+]([O-])c([S+]([O-])Cc2c(C(F)(F)F)nn(C)c2OC(F)F)c1 (stereo not shown)
Corn plant response rating: 90
--
MOLECULE: CCOc1ccc(S(=O)(=O)Cc2c(C(F)(F)F)nn(C)c2OC(F)F)[n+]([O-])c1
Corn plant response rating: 0
--
MOLECULE: CC(C)c1cc[n+]([O-])c(S(=O)(=O)Cc2c(C(F)(F)F)nn(C)c2OCC(F)(F)F)c1
Corn plant response rating: 50
--
MOLECULE: CCCc1cc[n+]([O-])c(S(=O)(=O)Cc2c(C(F)(F)F)nn(C)c2OCC(F)(F)F)c1
Corn plant response rating: 50
--
MOLECULE: Cn1nc(C(F)(F)F)c(CS(=O)(=O)c2cc(C3CC3)cc[n+]2[O-])c1OCC(F)(F)F
Corn plant response rating: 0
--
MOLECULE: Cn1nc(C(F)(F)C(F)(F)F)c(CS(=O)(=O)c2ccc(Cl)c[n+]2[O-])c1OCC(F)(F)F
Corn plant response rating: 0

Field: Corn plant response rating. Fill in for each record below.
1. CC(C)c1cc[n+]([O-])c(S(=O)(=O)Cc2c(C(F)(F)F)nn(C)c2OC(F)F)c1
2. CCCc1cc[n+]([O-])c([S+]([O-])Cc2c(C(F)(F)F)nn(C)c2OC(F)F)c1 (stereo not shown)

Data returned:
60
90

###

test system: itchgrass; assay: Test F preemergence test; assay type: in vivo, Rottboellia cochinchinensis; conditions: Preemergence; 31 g ai/ha; scale 0 to 100
Task for the reader: assign each of the following molecules its reported Plant response rating, Itchgrass.
Give bare numbers.

Answered examples (3):
MOLECULE: Cn1nc(C(F)(F)F)c(C[S+]([O-])c2ccc(Cl)c[n+]2[O-])c1OCC(F)(F)F (racemic) [Compound 62]
MEAS_VALUE: 75
//
MOLECULE: Cc1cc[n+]([O-])c(S(=O)(=O)C(C)c2c(C(F)(F)F)nn(C)c2OC(F)F)c1 (centres unmarked) [Compound 11]
MEAS_VALUE: 40
//
MOLECULE: Cn1nc(C(F)(F)F)c(C[S+]([O-])c2cccc[n+]2[O-])c1OCC(F)(F)F (racemic) [Compound 28]
MEAS_VALUE: 35

Field: Plant response rating, Itchgrass. Fill in for each record below.
1. Cn1nc(OC(F)F)c(CS(=O)(=O)c2cccc[n+]2[O-])c1C(F)(F)F [Compound 80]
2. Cn1nc(C(F)(F)F)c(C[S+]([O-])c2cccc[n+]2[O-])c1Cl (centres unmarked) [Compound 8]

Data returned:
1. 20
2. 15
